ASSAY REMARKS: molar heat capacity at constant pressure
CONDITION INFO: 345.65 K; 101.33 kPa; Liquid; Small sample (50 mg) DSC
# molar heat capacity at constant pressure listing for each entry below
Express the result in J/K/mol but write the number alone.

Here is how some compounds turned out for molar heat capacity at constant pressure.
>  <COMPOUND>
NCCCCCCN [1,6-hexanediamine]

>  <READING UNIT>
J/K/mol

>  <molar heat capacity at constant pressure>
305.87

$$$$
>  <COMPOUND>
NCCCCN [1,4-butanediamine]

>  <READING UNIT>
J/K/mol

>  <molar heat capacity at constant pressure>
241.74

$$$$
>  <COMPOUND>
NCCCCCCCCCN [1,9-diaminononane]

>  <READING UNIT>
J/K/mol

>  <molar heat capacity at constant pressure>
404.82

$$$$
>  <COMPOUND>
NCCCCCCCN [1,7-diaminoheptane]

>  <READING UNIT>
J/K/mol

>  <molar heat capacity at constant pressure>
339.97

$$$$
>  <COMPOUND>
NCCN [ethane-1,2-diamine]

>  <READING UNIT>
J/K/mol

>  <molar heat capacity at constant pressure>
176.87

$$$$

Continue with the compound presented below.
QUERY: Entry NCCCN [1,3-propanediamine] : reported molar heat capacity at constant pressure = ?
RESULT: 209.08

Data provenance is the NIST ThermoML archive (doi:10.1021/je900537y).
